Source of measurements: ChEMBL document CHEMBL3864143

- METHOD_NOTES: Half life in mouse blood at 2 uM by LC-MS/MS analysis
- Type: ADME, tissue-based
MEASURED_QUANTITY: half-life at 2 µM (h)
All answers are understood in h, so give the number only.

Task: Which half-life at 2 µM is reported for this compound? `O=C(Nc1cccnc1)C1CCN(C(=O)N[C@@H](CCc2ccccc2)C(=O)N[C@@H](CCc2ccccc2)C(=O)NCc2ccccc2Cl)CC1`
Result: 2.98

###

Please go through the items and note down their IC50.
- TARGET_UNDER_TEST: Proteasome Macropain subunit MB1 (Homo sapiens, UniProt P28074)
- Sequence (P28074 whole entry): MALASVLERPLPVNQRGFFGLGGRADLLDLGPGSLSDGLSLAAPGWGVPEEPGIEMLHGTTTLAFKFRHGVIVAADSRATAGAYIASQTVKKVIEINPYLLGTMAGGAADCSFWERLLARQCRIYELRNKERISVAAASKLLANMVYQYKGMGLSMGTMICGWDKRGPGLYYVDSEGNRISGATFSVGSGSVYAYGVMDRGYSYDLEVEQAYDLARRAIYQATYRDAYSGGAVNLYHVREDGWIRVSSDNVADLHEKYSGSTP
- METHOD_NOTES: Inhibition of chymotrypsin-like activity of human 20S proteasome preincubated for 15 mins followed by addition of Suc-Leu-Leu-Val-Tyr-AMC as substrate by fluorescence analysis
The reply should contain only the number, in nM.

Task: Can you share its IC50? I mean this molecule: `O=C(NC1CCN(C(=O)N[C@@H](CCc2ccccc2)C(=O)N[C@@H](CCc2ccccc2)C(=O)NCc2ccccc2Cl)CC1)c1cnccn1`
Result: 23.7

Task: If you can, please state the reported IC50 value of `CC(C)C[C@H](NC(=O)N1CCC(C(=O)Nc2cnccn2)CC1)C(=O)N[C@@H](CCc1ccccc1)C(=O)NCc1ccccc1Cl` .
Result: 16.6

Task: Data request, read-out IC50, for `O=C(Nc1cccnc1)C1CCN(C(=O)N[C@@H](CCc2ccccc2)C(=O)N[C@@H](CCc2ccccc2)C(=O)NCc2ccccc2Cl)CC1`
Result: 1.4

Task: Tell me the measured IC50 of `O=C(Nc1cnccn1)C1CCN(C(=O)N[C@@H](Cc2ccccc2)C(=O)N[C@@H](CCc2ccccc2)C(=O)NCc2ccccc2Cl)CC1` , please.
Result: 153
